- protocolDescription: in vivo
- experimentalContext: Wistar Han, rat, iv, 1 mg/kg
measuredProperty: Vd at 24 h (L/kg)

A = CCS(=O)(=O)c1ccc(C(NC(=O)Cc2ccccc2)C(=O)Nc2ccc(C(O)(C(F)(F)F)C(F)(F)F)cc2)cc1 (configuration not stated)
B = CCS(=O)(=O)c1ccc(C(NC(C)=O)C(=O)Nc2cc(-c3cc(C#N)cc(F)c3OC)cs2)cc1 (racemic)
Exam item: Recorded Vd at 24 h values differ for A and B ; which one is higher? Pick one and reply with its label.
Marked response: A
(A: 10.2 L/kg, B: 0.34 L/kg)

---

- protocolDescription: in vivo
- experimentalContext: Wistar Han, rat, po, 2 mg/kg
measuredProperty: bioavailability at 24 h (%)

P = CCS(=O)(=O)c1ccc(C(NC(C)=O)C(=O)Nc2cc(-c3cc(C#N)cc(F)c3OC)cs2)cc1 (racemic)
Q = CCS(=O)(=O)c1ccc(C(NC(=O)Cc2ccccc2)C(=O)Nc2ccc(C(O)(C(F)(F)F)C(F)(F)F)cc2)cc1 (configuration not stated)
Exam item: Which of the two gives a bigger number for bioavailability at 24 h: P or Q ? Refer to your chosen entry by its label in the reply.
Marked response: P

---

- protocolDescription: physchem
- experimentalContext: 1-octanol/PBS buffer, pH 7.4
measuredProperty: logD

| molecule | reportedMeasurement |
| --- | --- |
| CCS(=O)(=O)c1ccc(C(NC(=O)Cc2ccccn2)C(=O)Nc2ccc(C(O)(C(F)(F)F)C(F)(F)F)cc2)cc1 (configuration not stated) | 3.3 |
| CCS(=O)(=O)c1ccc(CC(=O)Nc2ccc(C(C(F)(F)F)C(F)(F)F)cc2)cc1 | 3.9 |
| CCS(=O)(=O)c1ccc(CC(=O)Nc2ccc(C(C)C)cc2)cc1 | 3.5 |
| CCS(=O)(=O)c1ccc(CC(=O)Nc2ccc(C(O)(C(F)(F)F)C(F)(F)F)cc2)cc1 | 3.6 |
| CCS(=O)(=O)c1ccc(CC(=O)Nc2ccc([C@H](O)C(F)(F)F)cc2)cc1 | 2.1 |
| CCS(=O)(=O)c1ccc(C(NC(=O)Cc2ccncn2)C(=O)Nc2ccc(C(O)(C(F)(F)F)C(F)(F)F)cc2)cc1 (configuration not stated) | 2.8 |
| CCS(=O)(=O)c1ccc(CC(=O)Nc2ccc(C(OC)(C(F)(F)F)C(F)(F)F)cc2)cc1 | 4 |
| CCS(=O)(=O)c1ccc(C(NS(C)(=O)=O)C(=O)Nc2ccc(C(O)(C(F)(F)F)C(F)(F)F)cc2)cc1 (configuration not stated) | 2.7 |

1 = CCS(=O)(=O)c1ccc(C(NC(=O)Cc2cccnn2)C(=O)Nc2ccc(C(O)(C(F)(F)F)C(F)(F)F)cc2)cc1 (configuration not stated)
2 = CCS(=O)(=O)c1ccc(C(NC(=O)OC)C(=O)Nc2ccc(C(O)(C(F)(F)F)C(F)(F)F)cc2)cc1 (configuration not stated)
Exam item: Lab note: record which item had the higher logD, 1 or 2 . Reply briefly: the label of your chosen item.
Marked response: 2

---

- protocolDescription: physchem
- experimentalContext: 1-octanol/PBS buffer, pH 7.4
measuredProperty: logD

Worked cases, logD given:
| compound | logD |
| --- | --- |
| CCS(=O)(=O)c1ccc(C(NC(=O)Cc2ccnnc2)C(=O)Nc2ccc(C(O)(C(F)(F)F)C(F)(F)F)cc2)cc1 (configuration not stated) | 2.9 |
| CCS(=O)(=O)c1ccc(C(NC(=O)NC)C(=O)Nc2ccc(C(O)(C(F)(F)F)C(F)(F)F)cc2)cc1 (configuration not stated) | 3.2 |
| CCS(=O)(=O)c1ccc(C(N)C(=O)Nc2ccc(C(O)(C(F)(F)F)C(F)(F)F)cc2)cc1 (configuration not stated) | 2.8 |

I = CCS(=O)(=O)c1ccc(CC(=O)Nc2ccc(C(C)(C)C#N)cc2)cc1
II = CCS(=O)(=O)c1ccc(C(NC(=O)Cc2ccccc2)C(=O)Nc2ccc(C(O)(C(F)(F)F)C(F)(F)F)cc2)cc1 (configuration not stated)
Exam item: Which record shows the lower logD: the first, I , or the second, II ? Use the label to indicate which entry you chose.
Marked response: I
(I: 2.5, II: 4)
